test system: TEL-KIT-BaF3 (stably expressing KIT wild-type kinase); test: Proliferation of TEL-KIT-BaF3 cells (CCK-8); format: cell-based, mouse; details: Mus musculus, 72 h, read-out: GI50 TEL-KIT-BaF3
Below, each of the molecules is paired with its reported GI50 value.
Unit nM implied. Number only.

Solved entries:
COc1cc2nccc(Oc3ccc(NC(=O)Cc4ccc(F)c(C(F)(F)F)c4)cc3)c2cc1OC [Example 13] : 24
COc1cc2nccc(Oc3ccc(NC(=O)Cc4ccc(Cl)c(C(F)(F)F)c4)c(F)c3)c2cc1OC [Example 24] : 49

Fill in the blank: the reported GI50 of COc1cc2nccc(Oc3ccc(NC(=O)Cc4ccc(C)c(C)c4)cc3)c2cc1OC [Example 11] is ____.
27

Fill in: GI50 of COc1cc2nccc(Oc3ccc(NC(=O)Cc4ccc(Cl)c(C(F)(F)F)c4)cc3Cl)c2cc1OC [Example 38] is ___
78

Requested field: GI50. Item: COc1cc2nccc(Oc3ccc(NC(=O)Cc4ccc(C)c(C(F)(F)F)c4)cc3)c2cc1OC [Example 1]
17

Which measured GI50 value corresponds to COc1cc2nccc(Oc3ccc(NC(=O)Cc4ccc(C(F)(F)F)cc4)cc3)c2cc1OC [Example 9] ?
22

Consider the molecule shown here: COc1cc2nccc(Oc3ccc(NC(=O)Cc4cccc(C(F)(F)F)c4)cc3)c2cc1OC [Example 8] What is its recorded GI50?
20
